ASSAY_NOTES: in vivo
RUN_PARAMETERS: in vivo; rat, ip
Experimental: The LD50 was determined in three species, the mouse (male, 18-25 g), the albino rat (female, 150-200 g) and the albino guinea pig (male 180-280 g) by oral administration and in the albino rat by intraperitoneal administration. The animals are fasted overnight prior to testing. […] The animals were housed five per cage (rat and guinea pig) or ten per cage (mouse) with free access to food and water. The number of dead animals was recorded daily for five consecutive days. […]
# maps each entry to its LD50
READOUT: LD50 (mg/kg)

• CCC(C)Cn1c(=O)n(C)c(=O)c2c1nc(C)n2C(=O)OC (centres unmarked) = 18.3
• COC(=O)n1c(C)nc2c1c(=O)n(C)c(=O)n2CC(C)C = 9.1
